# Test system: SRPK2
# CONDITION_SUMMARY: concentration: 1 μM, replicates: in singlicate; n = 1;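 further: KINOMEscan kinase panel screen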
Exercise: for every item that follows, state its recorded %Inh.
Please state the figure in %; there is no need to write the unit.

Q: Query (compound): Fc1cc(Cl)ccc1Nc1ccnc2cc(-c3ccc(CN4CCOCC4)o3)ccc12 [GW560109] ; field requested: %Inh
A: 0

Q: Query (compound): Cc1ccc(NC(=O)c2ccnc(N3CCCCC3)c2)cc1-c1ccc(C(=O)NCC2CC2)cc1 [GW775610] ; field requested: %Inh
A: 0

Q: Query (compound): CN(C)CCOc1ccc(-c2cc(-c3ccc(Cl)c(O)c3)c(-c3ccncc3)[nH]2)cc1.Cl.Cl [SB-684387] ; field requested: %Inh
A: 30

Q: Query (compound): COc1cc(Nc2ccnc3cc(-c4ccncc4)ccc23)cc(OC)c1OC.Cl [GW494610] ; field requested: %Inh
A: 0

Q: Query (compound): Nc1ncc(-c2ccc3nccc(-c4ccncc4)c3c2)cc1S(=O)(=O)N1CCCCC1 [GSK1693850] ; field requested: %Inh
A: 0

Q: Query (compound): Cc1ccccc1CC(=O)N1CCc2cc(-c3cn(C)c4ncnc(N)c34)ccc21 [GSK2603346] ; field requested: %Inh
A: 0

Q: Query (compound): CN1CCN(Cc2ccc(NC(=O)Nc3ccc(N(C)c4ccnc(Nc5ccc(CS(C)(=O)=O)cc5)n4)cc3)cc2)CC1.Cl [GW827654] ; field requested: %Inh
A: 31

Q: Query (compound): Cn1cc(-c2cnc(N)c3c(-c4ccc5c(c4)CCN5C(=O)Cc4ccccc4)csc23)cn1 [GSK2593074] ; field requested: %Inh
A: 0

Q: Query (compound): Cl.O=C(Nc1ccc(Oc2ccc3[nH]c(NC(=O)c4ccco4)nc3c2)cc1)Nc1cc(C(F)(F)F)ccc1F [GW683134] ; field requested: %Inh
A: 0

Q: Query (compound): O=C(Nc1n[nH]c2nc(-c3ccccc3O)ccc12)C1CC1 [SB-711880] ; field requested: %Inh
A: 0

Q: Query (compound): CC(C)NCC(Cc1ccccc1)NC(=O)c1cc(Br)c(-c2ccnc3[nH]ccc23)s1.Cl.Cl (centres unmarked) [GSK1383281] ; field requested: %Inh
A: 0

---

# Tested on: HIPK4
# CONDITION_SUMMARY: concentration: 1 μM, replicates: in singlicate; n = 1
QUANTITY_MEASURED: %Inh
Note to self: number, then unit, no commentary.

Q: Query (molecule): "Cn1cc(-c2ccc3c(c2)CCN3C(=O)Cc2cc(F)cc(F)c2F)c2c(N)ncnc21" ; field requested: %Inh
A: 0%

Q: Query (molecule): "Cn1cc(-c2ccc3c(c2)CCN3C(=O)Cc2cc(F)cc(C(F)(F)F)c2)c2c(N)ncnc21" ; field requested: %Inh
A: 13%

Q: Query (molecule): "Cc1ccc(NC(=O)c2ccnc(N3CCCCC3)c2)cc1-c1ccc(C(=O)NCC2CC2)cc1" ; field requested: %Inh
A: 0%

---

Exercise: for every item that follows, state its recorded %Inh.
# Test system: AMPK-alpha2
# Construct: gene PRKAA2
# CONDITION_SUMMARY: concentration: 1 μM, replicates: in singlicate; n = 1
Please state the figure in %; there is no need to write the unit.

Q: Query (compound): "COC(=O)Nc1nc2ccc(Oc3ccc(CC(=O)Nc4cc(C(F)(F)F)ccc4F)cc3)cc2[nH]1" ; field requested: %Inh
A: 0

Q: Query (compound): Cl.Cl.NCC(NC(=O)c1cc(-c2cccnc2)c(-c2ccnc3[nH]ccc23)s1)c1ccccc1 (centres unmarked) ; field requested: %Inh
A: 0

Q: Query (compound): "Cc1ccc(NC(=O)c2cccc(N3CCCCC3)c2)cc1-c1ccc(C(=O)NCC2CC2)cc1" ; field requested: %Inh
A: 28

Q: Query (compound): "Cl.N#CCc1ccc(Nc2nccc(Nc3ccc(Oc4ccccc4)cc3)n2)cc1" ; field requested: %Inh
A: 0

Q: Query (compound): "O=C(Nc1n[nH]c2nc(-c3cccc(O)c3)ccc12)C1CC1" ; field requested: %Inh
A: 0

Q: Query (compound): "CN(c1ccc(NC(=O)N2CCN(CCCN3CCOCC3)CC2)cc1)c1ccnc(Nc2ccc(CS(C)(=O)=O)cc2)n1.Cl" ; field requested: %Inh
A: 12

Q: Query (compound): "COc1cccc(NC(=O)NCCNc2ccnc(Nc3ccc(F)cc3)n2)c1" ; field requested: %Inh
A: 0

Q: Query (compound): "Cn1cc(-c2cnc(N)c3c(-c4ccc5c(c4)CCN5C(=O)Cc4ccccc4)csc23)cn1" ; field requested: %Inh
A: 0

---

# Tested on: EPHA1
# CONDITION_SUMMARY: concentration: 1 μM, replicates: in singlicate; n = 1
Label Met when %Inh >= 6%; otherwise Not met.

Q: Dear colleague, could you confirm whether "O=C(Nc1n[nH]c2cc(-c3cccs3)ccc12)C1CC1" has %Inh at or above 6%?
A: Not met

Q: Dear colleague, could you confirm whether NCCC(NC(=O)c1cc(Br)c(-c2ccnc3[nH]ccc23)s1)c1ccccc1.O=C(O)C(F)(F)F.O=C(O)C(F)(F)F (centres unmarked) has %Inh at or above 6%?
A: Met

Q: Dear colleague, could you confirm whether "COc1cccc(C2=C(Nc3cccc(O)c3)C(=O)NC2=O)c1" has %Inh at or above 6%?
A: Not met

Q: Dear colleague, could you confirm whether "COc1cccc2c(-c3ccncc3)c(-c3ccc(F)cc3)nn12" has %Inh at or above 6%?
A: Not met

Q: Dear colleague, could you confirm whether "CSc1ccc(NC2=C(c3ccc(Cl)cc3)C(=O)NC2=O)cc1" has %Inh at or above 6%?
A: Met

Q: Dear colleague, could you confirm whether COc1cc(Nc2nccc(N3CCC(NC(=O)Nc4ccc5c(c4)OCO5)C3)n2)cc(OC)c1OC (centres unmarked) has %Inh at or above 6%?
A: Met

Q: Dear colleague, could you confirm whether "CC(C)c1nc(-c2ccc(F)c(NS(=O)(=O)c3c(F)cccc3F)c2)c(-c2ccnc(Nc3ccc(N4CCOCC4)nc3)n2)s1" has %Inh at or above 6%?
A: Met

Q: Dear colleague, could you confirm whether "Cn1cc(-c2ccc3c(c2)CCN3C(=O)Cc2cc(F)cc(F)c2F)c2c(N)ncnc21" has %Inh at or above 6%?
A: Not met

Q: Dear colleague, could you confirm whether "O=C(Nc1n[nH]c2nc(-c3cccc(O)c3)ccc12)C1CC1" has %Inh at or above 6%?
A: Met

Q: Dear colleague, could you confirm whether Cl.Cl.NC(CNC(=O)c1cc(Br)c(-c2ccnc3[nH]ccc23)s1)c1ccccc1 (centres unmarked) has %Inh at or above 6%?
A: Met

---

# Tested on: TIE2
# Construct: gene TEK
# CONDITION_SUMMARY: concentration: 1 μM, replicates: in singlicate; n = 1
QUANTITY_MEASURED: %Inh (%)
Please state the figure in %; there is no need to write the unit.

Q: Query (compound): Cc1cccc(Nc2nc(N[C@H]3CCCC[C@H]3N)ncc2C(N)=O)c1.Cl [GSK986310] ; field requested: %Inh
A: 0

Q: Query (compound): "CCNC(=O)/C=C/c1n[nH]c2cc(Sc3ccccc3C(=O)NC)ccc12" ; field requested: %Inh
A: 20

Q: Query (compound): O=C(Nc1n[nH]c2nc(-c3cccc(O)c3)ccc12)C1CC1 [SB-711805] ; field requested: %Inh
A: 21

Q: Query (compound): COc1cccc(NC(=O)NCCNc2ccnc(Nc3ccc(F)cc3)n2)c1 [GSK1379879] ; field requested: %Inh
A: 0

Q: Query (compound): Cc1ccc(-c2ccc3occ(-c4ccc(S(C)=O)cc4)c3c2)nn1 (stereo not shown) ; field requested: %Inh
A: 15

Q: Query (compound): Cl.Cl.NC(CNC(=O)c1cc(Br)c(-c2ccnc3[nH]ccc23)s1)c1ccccc1 (stereo not shown) [GSK1322949] ; field requested: %Inh
A: 6

Q: Query (compound): Nc1ncc(-c2ccc3nccc(-c4ccncc4)c3c2)cc1S(=O)(=O)N1CCCCC1 [GSK1693850] ; field requested: %Inh
A: 0

Q: Query (compound): CN(C)c1ncnc2nc[nH]c12 [SKF-31736] ; field requested: %Inh
A: 0

Q: Query (compound): O=C1NC(=O)C(c2ccccc2Cl)=C1Nc1cccc(Cl)c1 [SB-342409] ; field requested: %Inh
A: 0

Q: Query (compound): Cc1ccc(C)c(NC(=O)Nc2ccc(C)c(-c3ccc(C(=O)Nc4ccncc4)cc3)c2)c1 [GSK1398473] ; field requested: %Inh
A: 0

Q: Query (compound): CC(C)NCC(Cc1ccccc1)NC(=O)c1cc(Br)c(-c2ccnc3[nH]ccc23)s1.Cl.Cl (stereo not shown) [GSK1383281] ; field requested: %Inh
A: 0

Q: Query (compound): Nc1cccc(-c2ccc3c(N)n[nH]c3c2)c1 [GSK2193613] ; field requested: %Inh
A: 0

Q: Query (compound): Cl.N#CCc1ccc(Nc2nccc(Nc3ccc(Oc4ccccc4)cc3)n2)cc1 [GW639905] ; field requested: %Inh
A: 9

Q: Query (compound): O=C(Nc1n[nH]c2nc(-c3ccccc3)ccc12)C1CC1 [SB-708999] ; field requested: %Inh
A: 3

Q: Query (compound): CNc1nccc(-c2ccc3c(N)n[nH]c3c2)n1 [GSK2206003] ; field requested: %Inh
A: 0

Q: Query (compound): COc1cccc(CC(=O)N2CCc3cc(-c4cn(C)c5ncnc(N)c45)ccc32)c1 [GSK2608899] ; field requested: %Inh
A: 42

Q: Query (compound): CC(C)c1nc(-c2cccc(NS(=O)(=O)c3c(F)cccc3F)c2)c(-c2ccnc(Nc3ccc(N4CCOCC4)nc3)n2)s1.Cl [GSK1723980] ; field requested: %Inh
A: 97.2

Q: Query (compound): "CCNc1nccc(-c2c(-c3ccc(F)cc3)ncn2C2CCN(C)CC2)n1" ; field requested: %Inh
A: 0

Q: Query (compound): Cc1nn2c(=O)cc(N3CCO[C@H](C)C3)nc2n1Cc1cccc(Cl)c1Cl [GSK2373693] ; field requested: %Inh
A: 2

Q: Query (compound): "CS(=O)(=O)c1cccc(CNc2nc(Nc3ccc4c(c3)CCC(=O)N4)ncc2C(F)(F)F)c1" ; field requested: %Inh
A: 30

Q: Query (compound): Cc1ccc(NC(=O)c2ccnc(N3CCCCC3)c2)cc1-c1ccc(C(=O)NCC2CC2)cc1 [GW775610] ; field requested: %Inh
A: 0

Q: Query (compound): CN(c1ccc(NC(=O)Nc2cccc(Cl)c2)cc1)c1ccnc(N)n1.Cl [GW830707] ; field requested: %Inh
A: 19

Q: Query (compound): O=C(Nc1c(F)cccc1F)c1cc(C(=O)c2ccccc2F)c[nH]1 [GSK1326180] ; field requested: %Inh
A: 0

Q: Query (compound): Cn1cc(-c2ccc3c(c2)CCN3C(=O)Cc2cc(F)cc(C(F)(F)F)c2)c2c(N)ncnc21 [GSK2635225] ; field requested: %Inh
A: 52

Q: Query (compound): CN(C)CCOc1ccc(-c2cc(-c3ccc(Cl)c(O)c3)c(-c3ccncc3)[nH]2)cc1.Cl.Cl [SB-684387] ; field requested: %Inh
A: 39

Q: Query (compound): COc1cc(Nc2ccnc3cc(-c4ccncc4)ccc23)cc(OC)c1OC.Cl [GW494610] ; field requested: %Inh
A: 15

Q: Query (compound): CC(C)c1nc(-c2ccc(F)c(NS(=O)(=O)c3c(F)cccc3F)c2)c(-c2ccnc(Nc3ccc(N4CCOCC4)nc3)n2)s1 [GSK1804250] ; field requested: %Inh
A: 98.9

Q: Query (compound): O=C(O)C(F)(F)F.O=c1[nH]ccc2nc(N[C@@H]3CCNC3)nc(Nc3cc(Cl)cc(Cl)c3)c12 [GSK2188764] ; field requested: %Inh
A: 0

Q: Query (compound): COC(=O)Nc1nc2cc(Oc3ccc(NC(=O)Nc4cccc(SC)c4)cc3)ccc2[nH]1.Cl [GW697999] ; field requested: %Inh
A: 93.2

Q: Query (compound): Cn1cc(-c2ccc3c(c2)CCN3C(=O)Cc2cc(F)cc(F)c2F)c2c(N)ncnc21 [GSK2634140] ; field requested: %Inh
A: 52

Q: Query (compound): CSc1ccc(NC2=C(c3ccc(Cl)cc3)C(=O)NC2=O)cc1 [SB-317658] ; field requested: %Inh
A: 17
